All figures here come from PubChem BioAssay (NCI).

- System: HS 578T breast
- PROTOCOL_DESCRIPTION: NCI-60 one-dose screen, 48 h (100 = growth as untreated, 0 = no growth, -100 = all killed)
- MEASUREMENT_PARAMETERS: 10 µM unless noted
Compounds without any hit were thinned out: in the full panel of roughly 83,000, 20% have a hit.
ASSAY_READOUT: growth (%)
One number for each entry, in %.

Past entries and their recorded results:
{"STRUCTURE_SMILES": "CCCCN1CCN(c2ccc3nc(-c4ccc5nc(-c6cc(OC)c(OC)c(OC)c6)[nH]c5c4)[nH]c3c2)CC1", "growth, %": 45}
{"STRUCTURE_SMILES": "CCCCn1c(=O)[nH]c(N)c(C(c2ccc(F)cc2)c2c(N)[nH]c(=O)n(CCCC)c2=O)c1=O", "growth, %": 81.1}
{"STRUCTURE_SMILES": "NC(N)=N/N=C/CO", "growth, %": 112}
{"STRUCTURE_SMILES": "N#Cc1c(N)n2c(nc1=Nc1ccc(Cl)cc1)sc1cc(Cl)ccc12", "growth, %": 33.3}
{"STRUCTURE_SMILES": "Clc1ccc(/C=C/c2nc(Nc3ccc(Cl)cc3)c3ccccc3n2)cc1", "growth, %": 103}
{"STRUCTURE_SMILES": "COc1ccc(Oc2nc(Nc3ccc(N4CCOCC4)nc3)ncc2NC(=O)c2cc(OC)cc(OC)c2)cc1", "growth, %": 86.8}

Give growth for all compounds that follow.
1. NS(=O)(=O)Oc1ccc(-c2sc3cc(O)ccc3c2C(=O)c2ccc(OCCN3CCCCC3)cc2)cc1
2. COc1ccc(Nc2ncc(Br)c(NCCCNC(=O)C3CCC3)n2)cc1
3. O=C1N/C(=N/O)S/C1=C/c1cn(-c2ccccc2)nc1-c1ccccc1

1. 37.8
2. -15.7
3. 83.1

---

- System: SN12C renal
- PROTOCOL_DESCRIPTION: NCI-60 one-dose screen, 48 h
- MEASUREMENT_PARAMETERS: 10 µM unless noted
- Method: Growth inhibition of the SN12C human tumor cell line is measured as a screen for anti-cancer activity. Cells are grown in 96 well plates and exposed to the test compound for 48 hours. Compounds are tested at a single concentration, which is 10^-5 M for most compounds. The reported endpoint is percent growth (GI% or GIPRCNT), where numbers from 0 - 100% represent growth inhibition, and numbers from -100% - 0 represent cell death. For example, a value of 40 represents 60% growth inhibition. […]
This is part of a sample that, as a whole, favours compounds with a hit. Of some 83,000 tested, about 20% had one in any assay. Calls of active or inactive are those of the source. The calls were made as follows: active = growth percent below 10; inactive = the rest.
Write down one outcome, taken from Y = active, N = inactive

{"MOLECULE": "COc1ccc(N(C)c2nc(Cl)nc3cnn(C)c23)cc1", "GROUP_LABEL": "N"}
{"MOLECULE": "CN(C)CCn1cc(-c2ccc3c(Nc4ccc(CC(=O)Nc5cccc(F)c5)cc4)ncnc3c2)cn1", "GROUP_LABEL": "Y"}
{"MOLECULE": "CCOC(=O)c1c2c(c(C)n1C)-c1nn(Cc3ccc(OC)cc3)cc1CC2", "GROUP_LABEL": "N"}

Called result for `Nc1c(-c2nc3ccccc3c(=O)[nH]2)nnn1-c1ccc(Cl)cc1`
N

Called result for `Cc1nc2ccccc2c(/C=C/c2ccc(Cl)cc2)c1C(=O)/C=C/c1ccc(Cl)cc1`
Y
